ASSAY_OVERVIEW: Cytotoxicity against human Calu-3 cells assessed as reduction in cell viability after 48 hrs by Cell-Tox green based fluorescence assay
CONDITION_INFO: Calu-3 cells
MEASURED_ENDPOINT: CC50 at 48 h

According to the records, this compound `CCC(CC)COC(=O)[C@H](C)N[P@](=O)(OC[C@H]1O[C@@](C#N)(c2ccc3c(N)ncnn23)[C@H](O)[C@@H]1O)Oc1ccccc1` displays CC50 at 48 h of > 50 µM

###

Below, each of the molecules is paired with its reported selectivity ratio value.
ASSAY_OVERVIEW: Selectivity index, ratio of CC50 for human Huh-7 cells to IC50 for Antiviral activity against Ebola virus constitutively expressed firefly
Assay type: toxicity
CONDITION_INFO: read-out: Ratio CC50/IC50
Lab note: record the figure alone, no unit after it.

Example entries begin here.
{"SUBSTANCE_SMILES": "CCCCCCCCCCOCCC(=O)O[C@H]1[C@@H](O)[C@](C#N)(c2ccc3c(N)ncnn23)O[C@@H]1CO[P@@](=O)(N[C@H](C)C(=O)OCC(CC)CC)Oc1ccccc1", "selectivity ratio": 0.529}
{"SUBSTANCE_SMILES": "CCCCCCCCCCOCCC(=O)O[C@@H]1[C@H](O)[C@@H](CO[P@@](=O)(N[C@H](C)C(=O)OCC(CC)CC)Oc2ccccc2)O[C@@]1(C#N)c1ccc2c(N)ncnn12", "selectivity ratio": 0.417}

// next item, selectivity ratio requested
Reported selectivity ratio ( `CCSCCCCCCCCCCCC(=O)O[C@@H]1[C@H](O)[C@@H](CO[P@@](=O)(N[C@H](C)C(=O)OCC(CC)CC)Oc2ccccc2)O[C@@]1(C#N)c1ccc2c(N)ncnn12` ) = 1.41
